Molecular target: Serine/threonine-protein kinase PAK 2 (Homo sapiens) (UniProt Q13177)
Sequence (Q13177 whole entry, looked up): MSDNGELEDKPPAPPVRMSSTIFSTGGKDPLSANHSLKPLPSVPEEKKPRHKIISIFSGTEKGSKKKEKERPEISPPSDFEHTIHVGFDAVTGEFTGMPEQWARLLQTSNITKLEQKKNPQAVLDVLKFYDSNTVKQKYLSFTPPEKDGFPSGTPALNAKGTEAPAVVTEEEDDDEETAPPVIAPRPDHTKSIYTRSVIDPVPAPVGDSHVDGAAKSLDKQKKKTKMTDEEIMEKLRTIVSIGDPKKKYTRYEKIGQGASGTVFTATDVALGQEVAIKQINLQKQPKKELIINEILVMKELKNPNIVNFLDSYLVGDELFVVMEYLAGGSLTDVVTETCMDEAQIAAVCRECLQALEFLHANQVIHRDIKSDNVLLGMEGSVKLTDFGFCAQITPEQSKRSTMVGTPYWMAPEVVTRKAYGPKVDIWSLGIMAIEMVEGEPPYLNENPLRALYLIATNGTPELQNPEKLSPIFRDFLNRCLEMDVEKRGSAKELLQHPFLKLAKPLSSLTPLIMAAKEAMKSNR

- Molecule: "CC(C)NC(=O)N1CC[C@H](N=C2Nc3cc(F)ccc3N(CC(F)F)c3ccc(Cl)cc32)C1"
  IC50: "0.72 µM"
